For each of the compounds below, state its pIC50.
- Target desc: recombinant human Aggrecanase-2 Agg2-Phe628 (Homo sapiens, UniProt Q9UNA0)
- Sequence (Q9UNA0 262-628 limits assumed): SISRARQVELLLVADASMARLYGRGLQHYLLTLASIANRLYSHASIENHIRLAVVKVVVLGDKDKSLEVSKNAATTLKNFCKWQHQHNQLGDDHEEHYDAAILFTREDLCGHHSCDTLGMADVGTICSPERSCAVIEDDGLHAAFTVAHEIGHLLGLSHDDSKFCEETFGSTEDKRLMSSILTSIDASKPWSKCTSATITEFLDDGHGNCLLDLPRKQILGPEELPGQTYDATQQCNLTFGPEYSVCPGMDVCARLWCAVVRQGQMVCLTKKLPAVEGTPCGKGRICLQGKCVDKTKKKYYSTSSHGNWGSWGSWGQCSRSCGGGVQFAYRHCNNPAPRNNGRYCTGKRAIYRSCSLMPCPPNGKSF
- Assay text: Aggrecanase 2 in vitro enzyme assay (Agg-2 FRET, quenched fluorescent peptide substrate)
- Type: biochemical
- Design: purified recombinant human Aggrecanase-2 Agg2-Phe628 (MW=41,737); This is a truncated form of full-length human aggrecanase-2; made in house; host or cells: CHO cells
- Protocol conditions: read-out: Agg-2 FRET Median IC50
Give bare numbers, as −log10 of the molar value.

Report pIC50 for each item below.
1. O=C(COc1ccccc1)NC(c1ccccc1[N+](=O)[O-])c1cc(Cl)c2cccnc2c1O (stereo not drawn)
2. CC(=O)Nc1ccc(NCC(=O)NC(c2cccc([N+](=O)[O-])c2)c2cc(Cl)c3cccnc3c2O)cc1 (stereo not drawn)
3. O=C(COc1ccccc1)NC(c1cccc(F)c1)c1cc(Cl)c2cccnc2c1O (stereo not drawn)
4. O=C(COc1ccccc1)NC(c1ccc(F)cc1Cl)c1cc(Cl)c2cccnc2c1O (stereo not drawn)
5. O=C(COc1ccccc1)NC(c1ccc(O)cc1Cl)c1cc(Cl)c2cccnc2c1O (stereo not drawn)
6. O=C(COCc1ccccc1)NC(c1cccc(F)c1)c1cc(Cl)c2cccnc2c1O (stereo not drawn)
7. O=C(CNc1cccnc1)NC(c1cccc(F)c1)c1cc(Cl)c2cccnc2c1O (stereo not drawn)
8. Cc1ccccc1C(NC(=O)COc1ccccc1)c1cc([N+](=O)[O-])c2cccnc2c1O (stereo not drawn)

Out:
1. 5.92
2. 5.56
3. 6.20
4. 5.96
5. 5.71
6. 6.08
7. 4.82
8. 6.07

In: Could you tell me which pIC50 is on file for O=C(COc1ccccc1)NC(c1ccc(Cl)cc1)c1ccc2cccnc2c1O (stereo not drawn) ?
Out: 5.47

---

- Target desc: recombinant human Aggrecanase-2 Agg2-Phe628 (Homo sapiens, UniProt Q9UNA0)
- Sequence (Q9UNA0 262-628 limits assumed): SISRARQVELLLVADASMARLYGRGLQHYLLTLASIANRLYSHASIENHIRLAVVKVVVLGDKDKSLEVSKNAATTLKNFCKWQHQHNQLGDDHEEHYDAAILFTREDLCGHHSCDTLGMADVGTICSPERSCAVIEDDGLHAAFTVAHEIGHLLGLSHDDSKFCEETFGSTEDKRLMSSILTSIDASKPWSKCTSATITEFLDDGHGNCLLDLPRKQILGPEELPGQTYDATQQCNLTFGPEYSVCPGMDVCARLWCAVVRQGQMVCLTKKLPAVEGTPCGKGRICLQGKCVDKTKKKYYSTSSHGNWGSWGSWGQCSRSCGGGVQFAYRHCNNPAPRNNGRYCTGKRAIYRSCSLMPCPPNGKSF
- Assay text: Aggrecanase 2 enzyme fluorescence polarization assay
- Protocol conditions: established value of positive control; read-out: Ki for rAgg-2
- Method: The fluorescence polarization assay is used to determine the dissociation constant of the enzyme:inhibitor complex (Ki) and the binding interaction mode (competitive, non-competitive or uncompetitive) of reversible inhibitors. The fluorescence polarization assay monitors the rotational motion of the fluorescent ligand. […] Polarization values are determined using an Analyst AD fluorometer (LJL Biosystems Inc., Sunnyvale, Calif.) with a 485±20 nm excitation filter and a 530±25 nm emission filter. […]
Reported metric: Ki (nM)
Numbers only, in nM.

In: Form entry - test system: recombinant human Aggrecanase-2 Agg2-Phe628 (Homo sapiens, UniProt Q9UNA0); read-out: Ki; compound: CN([C@H](CCCCNC(=O)OC(C)(C)C)C(=O)NO)S(=O)(=O)c1ccc(OCc2ccccc2)cc1 [Compound B, reference compound]
Out: 39

---

- Target desc: recombinant human Aggrecanase-2 Agg2-Phe628 (Homo sapiens, UniProt Q9UNA0)
- Sequence (Q9UNA0 262-628 limits assumed): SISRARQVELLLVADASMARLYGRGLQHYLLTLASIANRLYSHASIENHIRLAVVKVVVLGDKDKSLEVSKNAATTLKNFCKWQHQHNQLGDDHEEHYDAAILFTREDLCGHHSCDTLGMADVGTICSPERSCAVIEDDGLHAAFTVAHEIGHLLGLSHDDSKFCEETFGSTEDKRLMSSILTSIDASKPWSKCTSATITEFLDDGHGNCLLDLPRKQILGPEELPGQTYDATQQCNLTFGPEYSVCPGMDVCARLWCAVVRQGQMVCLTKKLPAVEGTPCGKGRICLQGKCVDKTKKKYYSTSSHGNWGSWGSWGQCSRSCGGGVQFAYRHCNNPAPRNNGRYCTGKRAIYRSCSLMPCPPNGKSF
- Assay text: Aggrecanase 2 in vitro enzyme assay (Agg-2 FRET, quenched fluorescent peptide substrate)
- Type: biochemical
- Design: purified recombinant human Aggrecanase-2 Agg2-Phe628 (MW=41,737); This is a truncated form of full-length human aggrecanase-2; made in house; host or cells: CHO cells
- Protocol conditions: read-out: Agg-2 IC50 (μM) or % Inhibition
Give inhibition at 22 µM for every item shown.
Numbers only, in %.

>>> df
                                   compound  readout_value
0  O=C(NC(Cc1cc(Cl)c2cccnc2c1O)c1ccc(CN2CCOCC2)cc1)c1ccc(-c2ccccc2)cc1 (centres unmarked)             50
1  CC(C)(Oc1ccc(Cl)cc1)C(=O)NC(Cc1cc(Cl)c2cccnc2c1O)c1cccc(CN2CCCC2)c1 (centres unmarked)             49
2  Cc1ccc(-c2cccc(C(Cc3cc(Cl)c4cccnc4c3O)NC(=O)COc3ccccc3)c2)s1 (centres unmarked)             58
3  Cc1ccc(-c2cccc(C(Cc3cc(Cl)c4cccnc4c3O)NC(=O)COCc3ccccc3)c2)s1 (centres unmarked)             56

We next turn to a different compound, shown below.
In: Query: inhibition at 22 µM; subject: Cc1ccc(-c2cccc(C(Cc3cc(Cl)c4cccnc4c3O)NC(=O)C(C)(C)Oc3ccc(Cl)cc3)c2)s1 (centres unmarked)
Out: 51

---

- Target desc: Agg-1 (Homo sapiens, UniProt O75173)
- Sequence (O75173 213-837): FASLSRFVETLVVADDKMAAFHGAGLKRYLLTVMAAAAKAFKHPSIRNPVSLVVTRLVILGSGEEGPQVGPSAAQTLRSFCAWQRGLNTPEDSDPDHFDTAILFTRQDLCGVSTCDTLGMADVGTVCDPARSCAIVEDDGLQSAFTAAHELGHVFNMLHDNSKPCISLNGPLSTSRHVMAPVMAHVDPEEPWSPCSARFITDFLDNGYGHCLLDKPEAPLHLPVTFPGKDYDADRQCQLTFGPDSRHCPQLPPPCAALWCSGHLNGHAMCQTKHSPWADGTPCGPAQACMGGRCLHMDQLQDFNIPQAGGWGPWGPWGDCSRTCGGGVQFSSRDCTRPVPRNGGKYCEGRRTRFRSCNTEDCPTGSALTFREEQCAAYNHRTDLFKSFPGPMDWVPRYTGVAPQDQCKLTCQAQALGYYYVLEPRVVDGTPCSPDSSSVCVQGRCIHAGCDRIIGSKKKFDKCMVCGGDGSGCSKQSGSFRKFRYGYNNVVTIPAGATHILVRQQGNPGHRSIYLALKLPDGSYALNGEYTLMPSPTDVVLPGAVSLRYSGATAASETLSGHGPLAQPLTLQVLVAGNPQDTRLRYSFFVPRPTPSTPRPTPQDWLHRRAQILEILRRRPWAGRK
- Assay text: Agg-1 FRET assay
- Type: biochemical
- Protocol conditions: @ 11000 nM; read-out: Agg1 %
Reported metric: inhibition at 11 µM (%)
Give bare numbers, in %.

Below, 3 compounds whose answers are already recorded.
>>> print(df.to_string())
                                   compound  readout_value
0  CO/C(=C\c1ccccc1)C(NC(=O)COc1ccccc1)c1cc(Cl)c2cccnc2c1O (stereo not shown)             47
1  O=C(COc1ccccc1)NC(c1cc(Cl)c2cccnc2c1O)c1ccnc2ccccc12 (stereo not shown)             34
2  Cn1cc(C(NC(=O)COc2ccccc2)c2cc(Cl)c3cccnc3c2O)c2ccccc21 (stereo not shown)             46

Now look at this entry.
In: Reported inhibition at 11 µM, compound Cn1c(C(NC(=O)COc2ccccc2)c2cc(Cl)c3cccnc3c2O)cc2ccccc21 (stereo not shown) : ____
Out: 48

---

- Target desc: recombinant human Aggrecanase-2 Agg2-Phe628 (Homo sapiens, UniProt Q9UNA0)
- Assay text: Aggrecanase 2 in vitro enzyme assay (Agg-2 FRET, quenched fluorescent peptide substrate)
- Type: biochemical
- Set-up: purified recombinant human Aggrecanase-2 Agg2-Phe628 (MW=41,737); This is a truncated form of full-length human aggrecanase-2; made in house; host or cells: CHO cells
- Protocol conditions: read-out: Agg2 IC50
What pIC50 was measured for each of the following?
One number for each entry, as −log10 of the molar value.

Please review the following examples before continuing.
>>> print(df.to_string())
                                   compound  readout_value
0  Cn1nnc2cc(C(NC(=O)COc3ccccc3)c3cc(Cl)c4cccnc4c3O)ccc21 (stereo not drawn)           5.89
1  O=C(COc1ccccc1)NC(c1ccc(-n2cccn2)cc1)c1cc(Cl)c2cccnc2c1O (stereo not drawn)           5.92
2  CC(=O)Nc1cccc(C(NC(=O)COc2ccccc2)c2cc(Cl)c3cccnc3c2O)c1 (stereo not drawn)           5.42
3  C/C=C/C(NC(=O)COc1ccccc1)c1cc(Cl)c2cccnc2c1O (stereo not drawn)           5.60
4  O=C(COc1ccccc1)NC(c1cc(Cl)c2cccnc2c1O)c1cccc2ncccc12 (stereo not drawn)           5.46
5  CCN(CC)c1ccc(C(NC(=O)COc2ccccc2)c2cc(Cl)c3cccnc3c2O)cc1 (stereo not drawn)           5.55
6  COc1ccc2cc(C(NC(=O)COc3ccccc3)c3cc(Cl)c4cccnc4c3O)ccc2c1 (stereo not drawn)           5.64
7  Cc1ccsc1C(NC(=O)Cc1ccccc1)c1cc(Cl)c2cccnc2c1O (stereo not drawn)           5.60

// batch mode: one pIC50 value per listed entry
1. COc1ccc(C(NC(=O)COc2ccccc2)c2cc(Cl)c3cccnc3c2O)c2ccccc12 (stereo not drawn)
2. Cc1ccc2occ(C(NC(=O)COc3ccccc3)c3cc(Cl)c4cccnc4c3O)c(=O)c2c1 (stereo not drawn)
3. CCc1cccc(OCC(=O)NC(c2ccccc2Cl)c2cc(Cl)c3cccnc3c2O)c1 (stereo not drawn)
4. COc1cc(OC)cc(OCC(=O)NC(c2ccccc2Cl)c2cc(Cl)c3cccnc3c2O)c1 (stereo not drawn)

Out:
6.10
5.92
5.89
6.00

Record pIC50 per entry; entries follow.
1. CN(C)c1ccc(C(NC(=O)COc2ccccc2)c2cc(Cl)c3cccnc3c2O)cc1 (stereo not drawn)
2. O=C(Cc1ccccc1)NC(c1ccccc1Cl)c1cc(Cl)c2cccnc2c1O (stereo not drawn)
3. O=C(COc1ccccc1)NC(c1ccc(OCc2ccccc2)cc1)c1cc(Cl)c2cccnc2c1O (stereo not drawn)
4. O=C(CCl)Nc1cccc(C(NC(=O)COc2ccccc2)c2cc(Cl)c3cccnc3c2O)c1 (stereo not drawn)
5. O=C(COc1ccc(C2CCCC2)cc1)NC(c1ccccc1Cl)c1cc(Cl)c2cccnc2c1O (stereo not drawn)
6. O=C(COc1ccccc1)NC(c1cc(Cl)c2cccnc2c1O)c1cccc2[nH]ccc12 (stereo not drawn)

Out:
1: 5.78; 2: 5.81; 3: 5.36; 4: 5.83; 5: 5.62; 6: 5.68

Report pIC50 for each item below.
1. COc1cc(OCC(=O)NC(c2ccccc2)c2cc(Cl)c3cccnc3c2O)cc(OC)c1OC (stereo not drawn)
2. O=C(COc1ccccc1)NC(c1ccc2c(c1)OCO2)c1cc(Cl)c2cccnc2c1O (stereo not drawn)

Out:
1: 5.74; 2: 5.81

# batch size: 5; output pIC50 per entry
1. CC(C)c1ccc(OCC(=O)NC(c2ccccc2Cl)c2cc(Cl)c3cccnc3c2O)cc1 (stereo not drawn)
2. O=C(COc1ccccc1)NC(c1ccc2c(c1)CCO2)c1cc(Cl)c2cccnc2c1O (stereo not drawn)
3. O=C(COc1ccccc1)NC(c1ccc(-c2csnn2)cc1)c1cc(Cl)c2cccnc2c1O (stereo not drawn)
4. O=C(COc1ccc(Br)cc1)NC(c1ccccc1Cl)c1cc(Cl)c2cccnc2c1O (stereo not drawn)
5. O=C(COc1ccccc1)NC(c1ccco1)c1cc(Cl)c2cccnc2c1O (stereo not drawn)

Out:
1: 5.85; 2: 5.62; 3: 5.97; 4: 5.62; 5: 5.62
